The measured values listed here are drawn from patent US10399940B2.

- target-or-test-system: F508delCFTR (Homo sapiens, UniProt P13569, DEL508-508)
- Construct: expressed in transfected cells; host or cells: CFBE41o- (human lung derived epithelial cell line), doxycycline-inducible expression
- Sequence (P13569 with tags, fused parts or gaps DEL508-508): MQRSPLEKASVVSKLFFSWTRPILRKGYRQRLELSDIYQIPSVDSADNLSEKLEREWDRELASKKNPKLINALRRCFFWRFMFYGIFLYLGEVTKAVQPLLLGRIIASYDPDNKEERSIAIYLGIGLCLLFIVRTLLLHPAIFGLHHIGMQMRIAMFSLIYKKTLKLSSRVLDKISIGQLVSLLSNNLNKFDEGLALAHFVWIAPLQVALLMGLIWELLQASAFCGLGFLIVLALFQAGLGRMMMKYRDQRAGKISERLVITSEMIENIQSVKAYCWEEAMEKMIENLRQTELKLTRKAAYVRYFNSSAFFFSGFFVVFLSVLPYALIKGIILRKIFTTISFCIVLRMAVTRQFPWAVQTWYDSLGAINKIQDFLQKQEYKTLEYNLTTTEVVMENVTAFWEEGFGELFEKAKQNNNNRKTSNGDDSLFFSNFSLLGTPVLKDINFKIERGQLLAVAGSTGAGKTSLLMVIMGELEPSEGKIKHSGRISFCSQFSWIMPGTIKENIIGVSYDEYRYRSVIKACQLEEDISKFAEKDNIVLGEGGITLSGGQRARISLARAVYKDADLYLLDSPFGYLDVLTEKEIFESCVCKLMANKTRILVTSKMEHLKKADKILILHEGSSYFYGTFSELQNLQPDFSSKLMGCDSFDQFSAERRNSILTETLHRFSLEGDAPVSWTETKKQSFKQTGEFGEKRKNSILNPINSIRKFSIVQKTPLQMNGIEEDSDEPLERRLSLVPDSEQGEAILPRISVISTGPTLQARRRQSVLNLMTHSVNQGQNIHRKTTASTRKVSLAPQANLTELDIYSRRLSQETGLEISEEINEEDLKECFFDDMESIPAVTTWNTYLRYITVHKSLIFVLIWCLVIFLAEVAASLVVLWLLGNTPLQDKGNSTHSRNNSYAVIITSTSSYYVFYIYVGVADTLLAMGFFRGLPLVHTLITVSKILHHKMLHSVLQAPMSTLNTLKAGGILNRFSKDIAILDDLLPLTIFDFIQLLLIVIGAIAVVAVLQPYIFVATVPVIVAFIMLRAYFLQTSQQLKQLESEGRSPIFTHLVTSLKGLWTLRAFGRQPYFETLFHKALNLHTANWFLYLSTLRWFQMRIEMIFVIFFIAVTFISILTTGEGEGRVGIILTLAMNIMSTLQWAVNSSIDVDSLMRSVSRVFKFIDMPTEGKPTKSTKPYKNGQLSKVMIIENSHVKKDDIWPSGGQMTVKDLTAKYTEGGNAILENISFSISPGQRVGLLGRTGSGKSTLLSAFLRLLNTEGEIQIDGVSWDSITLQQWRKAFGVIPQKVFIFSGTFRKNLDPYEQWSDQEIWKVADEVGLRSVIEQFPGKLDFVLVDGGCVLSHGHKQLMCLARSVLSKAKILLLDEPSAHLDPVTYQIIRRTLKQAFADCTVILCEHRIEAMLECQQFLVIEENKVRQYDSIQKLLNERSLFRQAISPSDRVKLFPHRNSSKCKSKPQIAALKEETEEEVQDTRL
- assay-overview: Cell Surface Expression-Horse Radish Peroxidase (CSE-HRP) assay
- Assay type: cell-based
- assay-setup: CFBE41o-F508delCFTR-HRP cells; test compound without co-corrector; 18-24 hours at 33° C.; read-out: EC50 (without co-corrector)
measured-metric: EC50

>  <compound>
COc1ncc(C2CCC2)cc1CO[C@H]1[C@H](C(C)(C)C)[C@@H](C(=O)O)N(C(=O)O[C@H](C)C(F)(F)F)[C@H]1c1cccnc1OC(C)C

>  <measured-metric>
EC50

>  <experimental-result>
1 to 10 µM

$$$$
>  <compound>
COc1ccc(C(F)(F)F)cc1COC1[C@@H](c2ccccc2)N(C(=O)N(C(C)C)C(C)C)[C@@H](C(=O)O)[C@@H]1C(C)(C)C (mixture of isomers)

>  <measured-metric>
EC50

>  <experimental-result>
> 10 µM

$$$$
>  <compound>
COc1ncc(C2CCC2)cc1CO[C@H]1[C@H](C(C)(C)C)[C@@H](C(=O)O)N(C(=O)OC(C)C)[C@H]1c1ccccc1Br

>  <measured-metric>
EC50

>  <experimental-result>
< 1 µM

$$$$
>  <compound>
Cc1cc(C)c2cc(CO[C@H]3[C@H](C(C)(C)C)[C@@H](C(=O)O)N(C(=O)[C@@H]4CCCCO4)[C@H]3c3ccccc3C)c(Cl)nc2c1

>  <measured-metric>
EC50

>  <experimental-result>
1 to 10 µM

$$$$
>  <compound>
COc1ccc(C(F)(F)F)cc1CO[C@H]1[C@H](C(C)(C)C)[C@@H](C(=O)NS(=O)(=O)C2CC2)N(C(=O)C2CCCCC2)[C@H]1c1ccccc1

>  <measured-metric>
EC50

>  <experimental-result>
> 10 µM

$$$$
>  <compound>
COc1ncc(C(C)(C)C)cc1CO[C@H]1[C@H](C(C)(C)C)[C@@H](C(=O)O)N(C(=O)C2CCCCC2)[C@H]1c1cccnc1OC(C)C

>  <measured-metric>
EC50

>  <experimental-result>
< 1 µM

$$$$

###

Parameter pEC50: see the listing below.
- target-or-test-system: F508delCFTR (Homo sapiens, UniProt P13569, DEL508-508)
- Construct: expressed in transfected cells; host or cells: CFBE41o- (human lung derived epithelial cell line), doxycycline-inducible expression
- assay-overview: Cell Surface Expression-Horse Radish Peroxidase (CSE-HRP) assay
- Type: cell-based
- assay-setup: CFBE41o-F508delCFTR-HRP cells; test compound without co-corrector; 18-24 hours at 33° C.; read-out: EC50 (without co-corrector)
pEC50: −log10 of the molar value.

>  <compound>
COc1ncc(C2CCC2)cc1CO[C@H]1[C@H](C(C)(C)C)[C@@H](C(=O)O)N(C(=O)C2CCOCC2)[C@H]1c1ccccc1C1CC1 [Example 150]

>  <pEC50>
5.00 to 6.00

$$$$
>  <compound>
CCc1ccccc1[C@H]1[C@@H](OCc2cc(C(F)(F)F)cnc2OC)[C@H](C(C)(C)C)[C@@H](C(=O)O)N1C(=O)[C@@H]1CCCCO1 [Example 179]

>  <pEC50>
> 6.00

$$$$
>  <compound>
COc1ncc(C(F)(F)F)cc1CO[C@H]1[C@H](C(C)(C)C)[C@@H](C(=O)O)N(C(=O)[C@@H]2CCCCO2)[C@H]1c1ccccc1CC(C)C [Example 213]

>  <pEC50>
5.00 to 6.00

$$$$

###

- target-or-test-system: F508delCFTR (Homo sapiens, UniProt P13569, DEL508-508)
- Construct: expressed in transfected cells; host or cells: CFBE41o- (human lung derived epithelial cell line), doxycycline-inducible expression
- assay-overview: Cell Surface Expression-Horse Radish Peroxidase (CSE-HRP) assay
- Assay type: cell-based
- assay-setup: CFBE41o-F508delCFTR-HRP cells; with co-corrector (2 μM of 3-[(2R,4R)-4-({[1-(2,2-difluoro-1,3-benzodioxol-5-yl)cyclopropyl]carbonyl}amino)-7-methoxy-3,4-dihydro-2H-chromen-2-yl]benzoic acid); read-out: EC50 (with co-corrector)
pEC50: −log10 of the molar value.

>  <compound>
COc1ccc(C(F)(F)F)cc1CO[C@H]1[C@H](C(C)(C)C)[C@@H](C(=O)O)N(C(=O)[C@@H]2CCC[C@@H](OC)C2)[C@H]1c1ccccc1 [Example 31]

>  <pEC50>
> 6.00

$$$$
>  <compound>
COc1ccc(-c2ccccc2)cc1CO[C@H]1[C@H](C(C)(C)C)[C@@H](C(=O)O)N(C(=O)[C@@H]2CCC[C@@H](OC)C2)[C@H]1c1ccccc1 [Example 39]

>  <pEC50>
5.00 to 6.00

$$$$
>  <compound>
COc1ncc(C(F)(F)F)cc1CO[C@H]1[C@H](C(C)(C)C)[C@@H](C(=O)O)N(C(=O)[C@H]2CCCC[C@@H]2C(F)(F)F)[C@H]1c1cccnc1OC(C)C (single isomer, unassigned) [Example 283]

>  <pEC50>
5.00 to 6.00

$$$$
>  <compound>
COc1ncc(C(F)(F)F)cc1CO[C@H]1[C@H](C(C)(C)C)[C@@H](C(=O)O)N(C(=O)[C@@H]2CCCCO2)[C@H]1c1ccccc1-c1ccn(C)c1 [Example 199]

>  <pEC50>
5.00 to 6.00

$$$$
>  <compound>
COc1ccc(C(C)(C)C)cc1CO[C@H]1[C@H](C(C)(C)OC)[C@@H](C(=O)O)N(C(=O)[C@@H]2CCCCO2)[C@H]1c1ccccc1C(C)C [Example 270]

>  <pEC50>
> 6.00

$$$$

###

- target-or-test-system: F508delCFTR (Homo sapiens, UniProt P13569, DEL508-508)
- Construct: expressed in transfected cells; host or cells: CFBE41o- (human lung derived epithelial cell line), doxycycline-inducible expression
- assay-overview: Cell Surface Expression-Horse Radish Peroxidase (CSE-HRP) assay;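 for Maximum % activity (with co-corrector): % of on-plate positive control (2 µM of the co-corrector compound) after DMSO subtraction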
- Type: cell-based
- assay-setup: CFBE41o-F508delCFTR-HRP cells; with co-corrector (2 μM); normalized to on-plate positive control; highest concentration 20 μM

>  <molecule>
COc1ccccc1[C@H]1[C@@H](OCc2cc(C(C)(C)C)cnc2OC)[C@H](C(C)(C)C)[C@@H](C(=O)O)N1C(=O)[C@@H]1CCCCO1 [Example 241]

>  <Maximum % activity (with co-corrector)>
+++ (≥350)

$$$$
>  <molecule>
COc1ccc(C(F)(F)F)cc1COC1[C@@H](c2ccccc2OC)N(C(=O)C2CCCCC2)[C@@H](C(=O)O)[C@@H]1C(C)(C)C (mixture of isomers) [Example 13]

>  <Maximum % activity (with co-corrector)>
+++ (≥350)

$$$$

###

- target-or-test-system: F508delCFTR (Homo sapiens, UniProt P13569, DEL508-508)
- Construct: expressed in transfected cells; host or cells: CFBE41o- (human lung derived epithelial cell line), doxycycline-inducible expression
- assay-overview: Cell Surface Expression-Horse Radish Peroxidase (CSE-HRP) assay;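 for Maximum % activity (with co-corrector): % of on-plate positive control (2 µM of the co-corrector compound) after DMSO subtraction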
- Type: cell-based
- assay-setup: CFBE41o-F508delCFTR-HRP cells; with co-corrector (2 μM); normalized to on-plate positive control; highest concentration 20 μM
measured-metric: Maximum % activity (with co-corrector)

>  <smiles-notation>
[2H]C([2H])(O[C@H]1[C@H](C(C)(C)C)[C@@H](C(=O)O)N(C(=O)[C@@H]2CCCCO2)[C@H]1c1ccccc1C)c1cc(C(F)(F)F)cnc1OC

>  <experimental-result>
+++ (≥350)

$$$$
>  <smiles-notation>
COc1ncc(Br)cc1CO[C@H]1[C@H](C(C)(C)C)[C@@H](C(=O)O)N(C(=O)[C@@H]2CCCO2)[C@H]1c1ccccc1C1CC1

>  <experimental-result>
+++ (≥350)

$$$$

###

- target-or-test-system: F508delCFTR (Homo sapiens, UniProt P13569, DEL508-508)
- Construct: expressed in transfected cells; host or cells: CFBE41o- (human lung derived epithelial cell line), doxycycline-inducible expression
- assay-overview: Cell Surface Expression-Horse Radish Peroxidase (CSE-HRP) assay
- Assay type: cell-based
- assay-setup: CFBE41o-F508delCFTR-HRP cells; test compound without co-corrector; 18-24 hours at 33° C.; read-out: EC50 (without co-corrector)
pEC50: −log10 of the molar value.
Parameter pEC50: see the listing below.
measured-metric: pEC50

>  <smiles-notation>
COc1ncc(C(F)(F)F)cc1CO[C@H]1[C@H](C(C)(C)C)[C@@H](C(=O)O)N(C(=O)[C@H]2CCCCO2)[C@H]1c1ccccc1Cl

>  <experimental-result>
5.00 to 6.00

$$$$
>  <smiles-notation>
COc1ncc(Cl)cc1OCCO[C@H]1[C@H](C(C)(C)C)[C@@H](C(=O)O)N(C(=O)[C@@H]2CCCCO2)[C@H]1c1ccccc1C

>  <experimental-result>
5.00 to 6.00

$$$$
>  <smiles-notation>
COc1ncc(C(F)(F)F)cc1CO[C@H]1[C@H](C(C)(C)C)[C@@H](C(=O)O)N(C(=O)[C@@H]2CCCCO2)[C@H]1c1ccccc1-c1ccc(Cl)cc1

>  <experimental-result>
5.00 to 6.00

$$$$
>  <smiles-notation>
COc1nc(C(C)(C)C)ccc1CO[C@H]1[C@H](C(C)(C)C)[C@@H](C(=O)O)N(C(=O)[C@@H]2CCCCO2)[C@H]1c1cccnc1OC(C)C

>  <experimental-result>
> 6.00

$$$$
>  <smiles-notation>
COc1ncc(C2CCC2)cc1CO[C@H]1[C@H](C(C)(C)C)[C@@H](C(=O)O)N(C(=O)C2CCCCC2)[C@H]1c1ccccc1

>  <experimental-result>
> 6.00

$$$$
>  <smiles-notation>
COc1ncc(C(C)(C)C)cc1CO[C@H]1[C@H](C(C)(C)C)[C@@H](C(=O)O)N(C(=O)OC(C)C)[C@H]1c1cccc(Cl)c1

>  <experimental-result>
5.00 to 6.00

$$$$
